# credit: patent US8147838B2

# study_target: MHC class I allele A*0101 (A1) (Homo sapiens, UniProt P04439, A114D/A174V/A182V/D101N/D185E/E176A/E190D/L180R/Q94H/R68K/S129P/T187R/V100A/V91M/W191G)
# assay: iTopia peptide binding assay, A*0101
# assay_context: percent of positive control peptide binding; peptide at 1.11×10^−5M
reported_metric: Peptide binding, MHC Class I Molecule A*0101

LTCAYPEKM [Peptide 161]	16 % of control
GKDRLTCAY [Peptide 159]	3 % of control
YHYRYEINA [Peptide 200]	0 % of control

GET /value?item= LGIVLALIG [Peptide 180] &field=Peptide binding, MHC Class I Molecule A*0101 returns 0 % of control

GET /value?item= VSAPSPLVE [Peptide 85] &field=Peptide binding, MHC Class I Molecule A*0101 returns 3 % of control

GET /value?item= NNSLVSLTY [Peptide 122] &field=Peptide binding, MHC Class I Molecule A*0101 returns 8 % of control

GET /value?item= ERQNRSFEG [Peptide 95] &field=Peptide binding, MHC Class I Molecule A*0101 returns 0 % of control

GET /value?item= PAAGDGRLR [Peptide 5] &field=Peptide binding, MHC Class I Molecule A*0101 returns 4 % of control
